- ASSAYED SYSTEM: T1, His-tagged P3028 peptide (PGE73) (human)
- T1 construct: albumin-derived peptide, in solution at 0.5 ug/mL; not shown: His-tag
- T1 peptide: VFDEFKPLVEEPQNLIK
- PROCEDURE DETAILS: PEPSCAN ELISA, peptide on card
Entries and their measured RAMPO Score follow.
Give your answer as a number; write no unit.

Sample answers from the record:
Prompt line: Entry under review: KKLDTFFVKVSLFTER [SEQ ID NO: 343 KKLDTFFVKVSLFTER] . Reported RAMPO Score?
Response line: 658

Prompt line: Entry under review: KKLDSFFVKLSLFTER [SEQ ID NO: 310 KKLDSFFVKLSLFTER] . Reported RAMPO Score?
Response line: 458

Prompt line: Entry under review: KKLDTFFVKLHLFTER [SEQ ID NO: 345 KKLDTFFVKLHLFTER] . Reported RAMPO Score?
Response line: 535

Others:
Prompt line: Entry under review: KKLDTFLVKLSLFTER [SEQ ID NO: 320 KKLDTFLVKLSLFTER] . Reported RAMPO Score?
Response line: 517
